Tested on: Histamine-induced anaphylactoid reactions
Protocol Description: Inhibition of anaphylactoid cutaneous reaction induced by histamine
Type: in vivo, rat (Sprague-Dawley)
Measurement Setup: Rattus norvegicus, 1 h; rats, 2 × 10^-5 mol/kg p.o., one hour before challenge; histamine intradermal
Outcome label depends on inhibition in vivo at 20 µmol/kg relative to 90%: at/above gives rule met, below gives rule not met.

Entry `Cc1ccnc(N2CCN(CCCc3c(C)n4c5c(cccc35)CCC4)CC2)c1` : is its inhibition in vivo at 20 µmol/kg no less than 90%?
rule not met

Would you kindly repeat that for Cc1ccnc(N2CCN(CCc3c(C)n4c5c(cccc35)CCC4c3ccccc3)CC2)c1 (stereo not shown) ?
rule met

Would you kindly repeat that for `Cc1ccnc(N2CCN(CCc3c(C)n4c5c(cc(C(=O)c6ccccc6)cc35)CCC4)CC2)c1` ?
rule not met

Would you kindly repeat that for `CC(=O)c1cc2c3c(c1)c(CCN1CCN(c4cc(C)ccn4)CC1)c(C)n3CCC2` ?
rule met

Would you kindly repeat that for `Cc1cccc(N2CCN(CCc3c(C)n4c5c(cccc35)CCC4)CC2)n1` ?
rule not met

Would you kindly repeat that for `Cc1ccnc(N2CCN(CCc3c(C)n4c5c(cc(NC(=O)c6ccccc6)cc35)CCC4)CC2)c1` ?
rule met

Would you kindly repeat that for CCCCC1CCc2cccc3c(CCN4CCN(c5cc(C)ccn5)CC4)c(C)n1c23 (stereo not shown) ?
rule met

Would you kindly repeat that for `Cc1ccnc(N2CCN(CCc3c(-c4ccccc4)n4c5c(cccc35)CCC4)CC2)c1` ?
rule not met

Would you kindly repeat that for CCCCCCCC1CCc2cccc3c(CCN4CCN(c5cc(C)ccn5)CC4)c(C)n1c23 (stereo not shown) ?
rule not met

Origin of the recorded values: patent US5324725A
